- Test system: A549
- Experiment: Antiproliferative activity against human A549 cells assessed as inhibition of cell proliferation at 2 uM after 72 hrs by MTT assay relative to control
- Format: functional
- Run Parameters: A549, 72 h
Could you label it true if measured inhibition at 2 µM is 10% or higher, and false otherwise?

Q: Is reported inhibition at 2 µM greater than or equal to 10% here: O=C(c1cccc(I)c1)C(Cl)Cl
Result: true

Q: Is reported inhibition at 2 µM greater than or equal to 10% here: COc1ccc(C(=O)C(Cl)Cl)cc1[N+](=O)[O-]
Result: true

Q: Is reported inhibition at 2 µM greater than or equal to 10% here: O=C(c1ccc(C(F)(F)F)cc1)C(Cl)Cl
Result: true

Q: Is reported inhibition at 2 µM greater than or equal to 10% here: O=C(c1ccccc1C(F)(F)F)C(Cl)Cl
Result: false

Q: Is reported inhibition at 2 µM greater than or equal to 10% here: O=C(c1ccc(I)cc1)C(Cl)Cl
Result: false

Q: Is reported inhibition at 2 µM greater than or equal to 10% here: Cc1ccccc1C(=O)C(Cl)Cl
Result: true

Q: Is reported inhibition at 2 µM greater than or equal to 10% here: O=C(c1cccc(CCl)c1)C(Cl)Cl
Result: true

Q: Is reported inhibition at 2 µM greater than or equal to 10% here: Cc1cccc(C(=O)C(Cl)Cl)c1
Result: true

Q: Is reported inhibition at 2 µM greater than or equal to 10% here: O=C(c1ccc(Cl)c([N+](=O)[O-])c1)C(Cl)Cl
Result: true

Q: Is reported inhibition at 2 µM greater than or equal to 10% here: O=C(c1ccc(OCCCCCBr)c([N+](=O)[O-])c1)C(Cl)Cl
Result: false

Q: Is reported inhibition at 2 µM greater than or equal to 10% here: CC(C)c1ccc(C(=O)C(Cl)Cl)cc1[N+](=O)[O-]
Result: true

Q: Is reported inhibition at 2 µM greater than or equal to 10% here: O=C(c1cccc(C(F)(F)F)c1)C(Cl)Cl
Result: true

Q: Is reported inhibition at 2 µM greater than or equal to 10% here: CCCCOc1ccc(C(=O)C(Cl)Cl)cc1[N+](=O)[O-]
Result: true

Q: Is reported inhibition at 2 µM greater than or equal to 10% here: O=C(c1ccco1)C(Cl)Cl
Result: false

Q: Is reported inhibition at 2 µM greater than or equal to 10% here: O=C(c1ccncc1)C(Cl)Cl
Result: false

Q: Is reported inhibition at 2 µM greater than or equal to 10% here: O=C(c1ccc([N+](=O)[O-])cc1)C(Cl)Cl
Result: true

Q: Is reported inhibition at 2 µM greater than or equal to 10% here: CCCOc1ccc(C(=O)C(Cl)Cl)cc1
Result: false

Q: Is reported inhibition at 2 µM greater than or equal to 10% here: CCOc1ccc(C(=O)C(Cl)Cl)cc1[N+](=O)[O-]
Result: true

Q: Is reported inhibition at 2 µM greater than or equal to 10% here: O=C(c1ccc(F)cc1F)C(Cl)Cl
Result: false

Q: Is reported inhibition at 2 µM greater than or equal to 10% here: CCc1ccc(C(=O)C(Cl)Cl)cc1[N+](=O)[O-]
Result: true

Q: Is reported inhibition at 2 µM greater than or equal to 10% here: COc1cccc2c1C(=O)c1c(O)c3c(c(O)c1C2=O)C[C@@](O)(C(=O)CO)C[C@@H]3O[C@H]1C[C@H](N)[C@H](O)[C@H](C)O1 [DOXORUBICIN]
Result: true

Q: Is reported inhibition at 2 µM greater than or equal to 10% here: O=C(c1ccc(OCCBr)c([N+](=O)[O-])c1)C(Cl)Cl
Result: false

Q: Is reported inhibition at 2 µM greater than or equal to 10% here: O=C(c1cccc(Br)c1)C(Cl)Cl
Result: true

Q: Is reported inhibition at 2 µM greater than or equal to 10% here: O=C(c1ccc(Br)c([N+](=O)[O-])c1)C(Cl)Cl
Result: false

Q: Is reported inhibition at 2 µM greater than or equal to 10% here: COc1ccc(C(=O)C(Cl)Cl)cc1
Result: false

Q: Is reported inhibition at 2 µM greater than or equal to 10% here: O=C(c1cccc(Cl)c1)C(Cl)Cl
Result: true

Q: Is reported inhibition at 2 µM greater than or equal to 10% here: O=C(c1cccs1)C(Cl)Cl
Result: false

Q: Is reported inhibition at 2 µM greater than or equal to 10% here: O=C(c1ccc(OCCCBr)c([N+](=O)[O-])c1)C(Cl)Cl
Result: true

Q: Is reported inhibition at 2 µM greater than or equal to 10% here: O=C(c1ccccc1)C(Cl)Cl
Result: false

Q: Is reported inhibition at 2 µM greater than or equal to 10% here: O=C(c1ccccn1)C(Cl)Cl
Result: false

All values here come from ChEMBL document CHEMBL4265965.
